Known Binding Response of a selection of binders
Molecular target: T1, CD122-Fc fusion protein (UniProt P14784 27-240, limits assumed)
T1 construct: also called IL-2Rβ; not shown: Fc part
T1 sequence (looked up): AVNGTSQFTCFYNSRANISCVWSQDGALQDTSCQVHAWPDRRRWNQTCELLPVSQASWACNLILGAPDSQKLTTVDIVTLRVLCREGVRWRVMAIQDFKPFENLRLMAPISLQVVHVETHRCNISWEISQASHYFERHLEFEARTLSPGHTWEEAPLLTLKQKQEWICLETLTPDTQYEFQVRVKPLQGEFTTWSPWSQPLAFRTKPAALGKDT
Assay: BLI (Octet RED96); CD122-Fc on AHC biosensor, IL-2 mutein at 400 nM
Design: unit not given here

binder	recorded_result
hIL-2 Mutein (K32E, R38E, F42K, C125S) (ligand, Column headed 'Fusion Protein'; no fusion partner is stated for the assay) APTSSSTKKTQLQLEHLLLDLQMILNGINNYENPKLTEMLTKKFYMPKKATELKHLQCLEEELKPLEEVLNLAQSKNFHLRPRDLISNINVIVLELKGSETTFMCEYADETATIVEFLNRWITFSQSIISTLT	> 0.5
hIL-2 Mutein (K32E, F42C, V69C, C125S) (ligand, The description says F42C and V69C form a disulfide bond; Column headed 'Fusion Protein'; no fusion partner is stated for the assay) APTSSSTKKTQLQLEHLLLDLQMILNGINNYENPKLTRMLTCKFYMPKKATELKHLQCLEEELKPLEECLNLAQSKNFHLRPRDLISNINVIVLELKGSETTFMCEYADETATIVEFLNRWITFSQSIISTLT	> 0.5
IL-2-IL-15 Chimera 5 (E15K, C125S) (ligand, Column headed 'Fusion Protein'; no fusion partner is stated for the assay) APTSSSTKKTQLQLKHLLLDLQMILNGIQSMEIDATTFKFYMPKKATELKHLQCLEEELKPLEEVLNLAQSKNFHLRPRDLISNINVIVLELKGSETTFMCEYADETATIVEFLNRWITFSQSIISTLT	> 0.5

# input for lookup
Q: What value of measured Binding Response is listed for IL-2-IL-15 Chimera 23 (D20E, C125S) (ligand, Column headed 'Fusion Protein'; no fusion partner is stated for the assay) APTSSSTKKTQLQLEHLLLELQMILNGIQSMEIDATTFKFYMPKKATELKHLQCLEEELKPLEEVLNLAQSKNFHLRPRDLISNINVIVLELKGSETTFMCEYADETATIVEFLNRWITFSQSIISTLT ?
Result: < 0.1
